- test_protocol: Interaction of perfume components with cyclodextrin (CD interaction)
- Format: physicochemical
- run_conditions: perfume component versus cyclodextrin
experimental_readout: CD interaction

>>> result("CC(C)(O)CCCC1=CCC(C=O)CC1 (stereo not shown)")
"weak"
>>> result("CCCCCC1C(=O)CCC1CC(=O)OC (stereo not shown) [Methyl Dihydro Jasmonate]")
"weak"
>>> result("CC(=O)OC1CC2CC1C1CC=CC21 (stereo not shown) [Flor Acetate]")
"strong"
>>> result("CC(C=O)Cc1ccc(C(C)(C)C)cc1 (stereo not shown)")
"strong"
>>> result("CC(=O)OC1CCC(C(C)(C)C)CC1 (stereo not shown) [Vertenex, para-tert-butylcyclohexyl acetate]")
"strong"
>>> result("CCCCCCCCCCCCCC(=O)OC(C)C [Iso-propyl Myristate]")
"weak"

---

- test_protocol: Interaction of perfume components with cyclodextrin (CD interaction)
- Type: physicochemical
- run_conditions: perfume component versus cyclodextrin
experimental_readout: CD interaction

>>> result("CC(=O)C1(C)CC2=C(CCCC2(C)C)CC1C (centres unmarked) [Iso-E Super]")
"weak"
>>> result("CC(C=O)Cc1ccc(C(C)C)cc1 (centres unmarked) [Cymal]")
"strong"
>>> result("CCCCCCC(C=O)=Cc1ccccc1 [Hexyl cinnamic Aldehyde]")
"weak"
>>> result("CC1COCc2cc3c(cc21)C(C)(C)C(C)C3(C)C (centres unmarked) [Galaxolide]")
"weak"
>>> result("CCOC(=O)c1ccccc1C(=O)OCC [Diethyl Phthalate]")
"weak"
>>> result("CCCCCCOC(=O)c1ccccc1O [Hexyl Salicylate]")
"weak"
>>> result("O=C(Cc1ccccc1)OCCc1ccccc1 [Phenyl-Ethyl-Phenyl Acetate]")
"weak"
>>> result("CC(=O)C(C)=C(C)C(C)C(C)(C)C (centres unmarked) [Koavone]")
"strong"
>>> result("CCC(=O)OC1CC2CC1C1CC=CC21 (centres unmarked) [Frutene]")
"strong"
>>> result("CC(=O)/C=C/C1C(C)=CCCC1(C)C (centres unmarked) [a-ionone]")
"strong"
